# ASSAY SUMMARY: chemical genetic growth profiling, strain panel (AID 1159580);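 note: tested at 20 µM; growth read once vehicle control cultures reached saturation at 30 °C; 1 = growth at the plate median or of vehicle wells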
# PARTICULARS: S. cerevisiae deletion strains, growth OD, locus YER123W, strain YCK3, stronger effect = lower value
Screen size: about 5,500 compounds; about 2,000 (36%) were called active. About 18% were inconclusive and are not listed. Some of the results follow.
The label condition met is reserved for normalized growth strictly under 0.9; condition not met covers values equal to or above it.

Recorded results for 4 compounds are shown here.
{"GIVEN SMILES": "FC(F)(F)c1ccnc(N2CCCN(C(=S)Nc3ccc(Cl)cc3Cl)CC2)n1", "DISCRETE LABEL": "condition not met"}
{"GIVEN SMILES": "OC(=Cc1nc2ccccc2nc1C=C(O)c1ccc(Cl)cc1)c1ccc(Cl)cc1", "DISCRETE LABEL": "condition met"}
{"GIVEN SMILES": "CC(=O)ON=C1c2cc([N+](=O)[O-])ccc2-c2ccc([N+](=O)[O-])cc21", "DISCRETE LABEL": "condition met"}
{"GIVEN SMILES": "ClC1=C(C=Nc2ccc(Cl)cc2)CSc2ccc(Cl)cc21", "DISCRETE LABEL": "condition met"}

**Q:** Please state whether normalized growth is below 0.9 for FC(F)(F)c1cccc(-n2c(CSCc3cccc4ccccc34)n[nH]c2=S)c1
**A:** condition not met

====

normalized growth listing for selected compounds.
# ASSAY SUMMARY: chemical genetic growth profiling, strain panel (AID 1159580)
# PARTICULARS: S. cerevisiae deletion strains, growth OD, locus YPL055C, strain LGE1, stronger effect = lower value
Hit rate of the full screen: of about 5,500 compounds, about 2,000 (36%) were called active. Roughly 18% stayed inconclusive and do not appear here. Some of the results follow.
Just the number, please, no unit after it.

{"COMPOUND": "O=C(O)CN(CC(=O)O)Cc1cc2c(-c3ccccc3C(=O)O)c3cc(CN(CC(=O)O)CC(=O)O)c(=O)cc-3oc2cc1O", "QUANTITY MEASURED": "normalized growth", "NUMBER": 0.974}
{"COMPOUND": "O=C(CSCc1cccc2ccccc12)NNC(=O)c1ccc(F)cc1", "QUANTITY MEASURED": "normalized growth", "NUMBER": 1}
{"COMPOUND": "CSC(=NC#N)N1CCN(c2ccc([N+](=O)[O-])cn2)CC1", "QUANTITY MEASURED": "normalized growth", "NUMBER": 1.08}
{"COMPOUND": "O=[N+]([O-])c1ccc(N2CCCN(C(=S)Nc3ccc(Cl)cc3Cl)CC2)nc1", "QUANTITY MEASURED": "normalized growth", "NUMBER": 0.928}
{"COMPOUND": "N#C/C(=C\\c1ccc(Oc2ccccc2)nc1)S(=O)(=O)c1ccccc1", "QUANTITY MEASURED": "normalized growth", "NUMBER": 0.988}

**Q:** Consider the compound CCCc1cnc(N2CCCN(C(=S)Nc3cccnc3)CC2)nc1 and give its recorded normalized growth.
**A:** 1.02

**Q:** Consider the compound CCC(C)c1cnc(CC(C)C)c(=O)n1O (stereo unspecified) and give its recorded normalized growth.
**A:** 0.548

**Q:** Consider the compound CC(C)(C)S(=O)(=O)/C(C#N)=C/N1CCCCC1 and give its recorded normalized growth.
**A:** 0.963

**Q:** Consider the compound C=C1C(=O)O[C@@H]2C[C@@]3(C)CCC[C@H](C)C3=C[C@H]12 and give its recorded normalized growth.
**A:** 0.722

**Q:** Consider the compound N#CCC(=O)Nc1ccccn1 and give its recorded normalized growth.
**A:** 1.04

**Q:** Consider the compound O=C(CSCc1cccc2ccccc12)NNC(=S)Nc1ccccc1Cl and give its recorded normalized growth.
**A:** 0.903

====

# ASSAY SUMMARY: chemical genetic growth profiling, strain panel (AID 1159580);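 note: tested at 20 µM; growth read once vehicle control cultures reached saturation at 30 °C; 1 = growth at the plate median or of vehicle wells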
# PARTICULARS: S. cerevisiae deletion strains, growth OD, locus YHR200W, strain rpn10, stronger effect = lower value
The campaign covered roughly 5,500 compounds. About 2,000 (36%) were called active. About 18% were inconclusive and are not listed. The list shows a part of the results.
QUANTITY MEASURED: normalized growth
Just the number, please, no unit after it.

Here is how some compounds turned out for normalized growth.
{"COMPOUND": "C#CCCCCCCCCCCCC(O)CC(O)CO (stereo unspecified)", "normalized growth": 1.01}
{"COMPOUND": "C=CCCCCCCCCCCCC(O)CC(O)COC(C)=O (stereo unspecified) (tested in a mixture with another compound)", "normalized growth": 0.938}
{"COMPOUND": "CC1OC1P(=O)(O)O (stereo unspecified)", "normalized growth": 0.989}
{"COMPOUND": "CC(=O)OCC(OC(C)=O)C(OC(C)=O)C(OC(C)=O)C(OC(C)=O)C(COC(C)=O)OC(C)=O (stereo unspecified)", "normalized growth": 0.986}
{"COMPOUND": "C#CCCCCCCCCCCCC(O)CC(O)COC(C)=O (stereo unspecified)", "normalized growth": 0.945}

Now consider a different compound.
**Q:** Consider the compound CC(=O)OCC(COC(C)=O)OC(C)=O and give its recorded normalized growth.
**A:** 1.01

====

# ASSAY SUMMARY: chemical genetic growth profiling, strain panel (AID 1159580);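 note: tested at 20 µM; growth read once vehicle control cultures reached saturation at 30 °C; 1 = growth at the plate median or of vehicle wells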
# PARTICULARS: S. cerevisiae deletion strains, growth OD, locus YER167W, strain BCK2
About 2,000 (36%) of roughly 5,500 compounds were called active. Another 18% or so got no clear call; they are omitted. No stated cut-off is given here; in the data, active means normalized growth mostly below about 0.91 (no sharp cut-off); inconclusive means no clear call, values can overlap the other calls; inactive means mostly above about 0.92. The list shows a part of the results.
Just give me one of these, please: yes (1) (active), no (0) (inactive)

{"COMPOUND": "COC(=O)C1=CCCN(C)C1", "DISCRETE LABEL": "no (0)"}
{"COMPOUND": "Clc1cccc(Cl)c1NC1=NCCN1", "DISCRETE LABEL": "no (0)"}
{"COMPOUND": "COC(=O)C(O)c1ccccc1 (configuration not stated)", "DISCRETE LABEL": "no (0)"}
{"COMPOUND": "COC(=O)C(C)c1ccc(C(=O)c2cccs2)cc1 (configuration not stated)", "DISCRETE LABEL": "no (0)"}
{"COMPOUND": "CC(=O)OC1CCC2(C)C(=CC=C3C2CCC2(C)C3CCC2C(C)/C=C/C(C)C(C)C)C1(C)C (configuration not stated)", "DISCRETE LABEL": "no (0)"}
{"COMPOUND": "CC(C)NCC(O)c1cc(O)cc(O)c1 (configuration not stated)", "DISCRETE LABEL": "no (0)"}

**Q:** Please share the test call associated with O=C(O)c1ccccc1-c1c2cc(Br)c(=O)cc-2oc2[c]([Hg])c(O)c(Br)cc12 .
**A:** yes (1)

====

# ASSAY SUMMARY: chemical genetic growth profiling, strain panel (AID 1159580);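 note: tested at 20 µM; growth read once vehicle control cultures reached saturation at 30 °C; 1 = growth at the plate median or of vehicle wells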
# PARTICULARS: S. cerevisiae deletion strains, growth OD, locus YKL068W, stronger effect = lower value
In all, about 5,500 compounds went through this assay and about 2,000 (36%) were called active. Not shown: some 18% with an inconclusive outcome. Some of the results follow.
normalized growth listing for selected molecules.
Just the number, please, no unit after it.

Here is how some molecules turned out for normalized growth.
{"MOLECULE": "CC1OC1P(=O)(O)O (stereo unspecified)", "normalized growth": 0.988}
{"MOLECULE": "CC(C)C(=O)Nc1ccc([N+](=O)[O-])c(C(F)(F)F)c1", "normalized growth": 0.984}
{"MOLECULE": "C#CCCCCCCCCCCCC(=O)CC(O)COC(C)=O (stereo unspecified)", "normalized growth": 0.977}
{"MOLECULE": "CC(=O)OCC(COC(C)=O)OC(C)=O", "normalized growth": 1}
{"MOLECULE": "CC(C)[C@@H]1CC[C@@H](C)C[C@H]1O", "normalized growth": 1.01}
{"MOLECULE": "COC(=O)[C@@H]1OC(=O)[C@H]2O[C@@]23[C@@]1(C)CCC1[C@@]2(C)CCC(=O)C(C)(C)C2C[C@@H](OC(C)=O)[C@]13C (stereo partly specified)", "normalized growth": 0.998}
{"MOLECULE": "C#CCCCCCCCCCCCC(O)CC(O)COC(C)=O (stereo unspecified)", "normalized growth": 0.985}
{"MOLECULE": "C=CCSCC1Nc2cc(Cl)c(S(N)(=O)=O)cc2S(=O)(=O)N1 (stereo unspecified)", "normalized growth": 1.02}

**Q:** Consider the molecule COC(=O)C1=CCCN(C)C1 and give its recorded normalized growth.
**A:** 0.996

**Q:** Consider the molecule C[C@@H]1C(=O)OC2[C@H](O)C34[C@@H]5OC(=O)[C@@]3(O[C@@H]3OC(=O)[C@H](O)[C@@]34[C@H](C(C)(C)C)[C@H]5O)[C@]21O (stereo partly specified) and give its recorded normalized growth.
**A:** 1

All values here come from PubChem BioAssay AID1159580.
